Data credit: paper PMC4259358

# target-of-assay: recombinant IPOA5 (importin α5/kap α1) (UniProt P52294 1-538)
# Sequence (P52294 whole entry): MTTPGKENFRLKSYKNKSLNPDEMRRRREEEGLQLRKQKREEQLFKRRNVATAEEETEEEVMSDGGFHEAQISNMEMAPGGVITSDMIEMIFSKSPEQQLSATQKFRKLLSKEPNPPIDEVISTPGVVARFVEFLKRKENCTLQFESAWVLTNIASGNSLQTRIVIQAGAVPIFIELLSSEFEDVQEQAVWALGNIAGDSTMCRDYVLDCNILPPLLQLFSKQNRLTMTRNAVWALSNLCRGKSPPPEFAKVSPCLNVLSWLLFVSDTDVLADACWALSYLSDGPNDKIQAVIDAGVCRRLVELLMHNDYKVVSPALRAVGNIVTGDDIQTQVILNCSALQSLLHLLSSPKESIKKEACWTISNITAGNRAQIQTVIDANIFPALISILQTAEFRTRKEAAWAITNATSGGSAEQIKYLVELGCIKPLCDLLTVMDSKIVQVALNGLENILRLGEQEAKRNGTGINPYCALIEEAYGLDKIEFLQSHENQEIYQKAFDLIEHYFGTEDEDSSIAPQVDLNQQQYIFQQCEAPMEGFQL
# test: ELISA; plates coated with synthetic peptide (10 µg/ml, carbonate buffer pH 9.6); increasing concentrations of recombinant NTF, 2 h, room temperature; anti-HIS detection; apparent Kd
# settings: both partners purified
pKd: −log10 of the molar value.
measured-property: pKd

Q) Requested field: pKd. Item: PIIFSPMEKKVIVWGRQIKIWFQNRRMKWKK (source: synthetic peptide (GL Biochem, HPLC >85%)) [NS2 NLS synthetic peptide (fused to penetratin)]
A) ~7.47
